Origin of the recorded values: PubChem BioAssay (NCI)

Test system: K-562 leukemia
Test: NCI-60 one-dose screen, 48 h (100 = growth as untreated, 0 = no growth, -100 = all killed)
Details: 10 µM unless noted
Compounds without any hit were thinned out: in the full panel of roughly 83,000, 20% have a hit.
Could you label it 1 (yes) if measured growth is 70% or higher, and 0 (no) otherwise?

Input line: Does growth meet or surpass 70% for `O=C(O)c1cn(C2CC2)c2cc(N3CCN(C(=O)N4CCOCC4)CC3)c(F)cc2c1=O` ?
Output line: 1 (yes)

Input line: Does growth meet or surpass 70% for `C=CCn1cc(-c2nc3ccccc3s2)c2cc(-c3ccc4c5c(cccc35)C(=O)N(CCO)C4=O)ccc21` ?
Output line: 1 (yes)

Input line: Does growth meet or surpass 70% for `Clc1ccc(Nc2nnc(CNc3ccccc3)c3ccccc23)cc1` ?
Output line: 0 (no)

Input line: Does growth meet or surpass 70% for `CS(=O)(=O)c1ccc(-c2nc3ccccc3n2CC(=O)N/N=C/c2ccccc2)cc1` ?
Output line: 1 (yes)

Input line: Does growth meet or surpass 70% for `CCOC(=O)C/C(=N\Nc1cc(=O)[nH]c2ccc(C)cc12)C(=O)OCC` ?
Output line: 1 (yes)

Input line: Does growth meet or surpass 70% for `COCCn1cc(-c2nc(-c3cc4cccnc4n3C)cs2)c2ccccc21` ?
Output line: 0 (no)

Input line: Does growth meet or surpass 70% for `Cn1c(=O)c2[nH]c(SC/C(=N/O)c3ccc(Br)cc3)nc2n(C)c1=O` ?
Output line: 0 (no)

Input line: Does growth meet or surpass 70% for CCn1cc(C(=O)N/N=C/c2ccccc2)c(=O)c2cc(F)c(N3CCNC(C)C3)c(F)c21 (stereo not given) ?
Output line: 0 (no)

====

Tested on: NCI-H522 lung
Experiment: NCI-60 one-dose screen, 48 h
Settings: 10 µM unless noted
Compounds without any hit were thinned out: in the full panel of roughly 83,000, 20% have a hit. The source made the active and inactive calls. The calls were made as follows: active = growth percent below 10; inactive = the rest.
Allowed answers: active, inactive

Input line: # lookup: test call for `Cc1cc(Cl)nc(N2CCN(CCNc3ccnc4cc(Cl)ccc34)CC2)n1`
Output line: inactive

Input line: # lookup: test call for `COc1ccc(C(=O)C/C(=C\c2ccc(O)c(OC)c2)C(=O)NN)cc1`
Output line: inactive

Input line: # lookup: test call for `COc1ccc(N=C2NN=C(c3c[nH]c4ccccc34)CS2)cc1OC`
Output line: active

Input line: # lookup: test call for CC(O)Cc1c[nH]c(=O)[nH]c1=O (stereo not drawn)
Output line: inactive

Input line: # lookup: test call for `Nc1ccc(Br)cc1C(F)(F)F`
Output line: inactive

Input line: # lookup: test call for COC1C(O)CC(OC2CC(OC3CC(O[C@@H]4C(=O)c5c(cc6cc(OC7CC(OC8CC(O)C(O)C(C)O8)C(O)C(C)O7)c(C)c(O)c6c5O)CC4[C@H](OC)[C@@H](O)C(C)=O)OC(C)C3O)OC(C)C2O)OC1C (stereo partly drawn)
Output line: active

Input line: # lookup: test call for CC1SC(c2ccccc2O)N(NC(=O)CCC(=O)c2nc3ncccc3[nH]2)C1=O (stereo not drawn)
Output line: inactive

Input line: # lookup: test call for `COc1ccc2cc(C(=O)N3CCC([C@@H](C)C(=O)NCc4ccc5c(c4)OCO5)CC3)[nH]c2c1`
Output line: active

====

Test system: EKVX NSCLC
Assay: NCI-60 one-dose screen, 48 h (100 = growth as untreated, 0 = no growth, -100 = all killed)
Details: 10 µM unless noted
The panel holds about 83,000 compounds, 20% with a hit somewhere; the sample as a whole holds those more often.
Measured property: growth (%)
Reply with just the number (in %).

Input line: Which growth value is on record for `N#Cc1nn(-c2cc(=O)[nH]c3ccc(Br)cc23)c(N)c1C#N` ?
Output line: 87.5

Input line: Which growth value is on record for `CCN(CC)c1ccc(-c2cc(-c3cc(OC)c(OC)c(OC)c3)nc(N3CCC(O)CC3)c2C#N)cc1` ?
Output line: 18.6

Input line: Which growth value is on record for `CCOC(=O)c1c(C)nc2c(c1N)C(=O)C(=O)N2Cc1ccc(OC)cc1` ?
Output line: 90.9

Input line: Which growth value is on record for CCOC(=O)C1=C(CCl)N(C)C(=O)NC1c1ccc2c(c1)OCO2 (stereo not drawn) ?
Output line: 71.9

Input line: Which growth value is on record for `O=S(=O)(N=C1C(Cl)=C(Cl)C(=NS(=O)(=O)c2ccccc2)C(Cl)=C1Cl)c1ccccc1` ?
Output line: 107

Input line: Which growth value is on record for COc1ccc(C2CC(n3ccnc3)c3cc(OC)c(OC)c(OC)c32)cc1O (stereo not drawn) ?
Output line: 101

Input line: Which growth value is on record for COc1ccc(C2[C@@H](c3ccccc3)C(=O)N2c2cc(OC)c(OC)c(OC)c2)cc1F (stereo partly drawn) ?
Output line: 34.7

Input line: Which growth value is on record for `O=C1/C(=C/c2ccc(Cl)cc2)CN(C(=O)C(Cl)Cl)C/C1=C\c1ccc(Cl)cc1` ?
Output line: -60

Input line: Which growth value is on record for `COc1ccc2c(c1)c(-c1nc(-c3ccc4ccccc4c3)cs1)cn2C` ?
Output line: 85.8

Input line: Which growth value is on record for `COc1ccc(NC(=O)c2ccc(Nc3ncnc4c3cnn4-c3cccc(F)c3)cc2)cc1` ?
Output line: 101

Input line: Which growth value is on record for `CN(C)C1CN(C(=O)c2cc(-c3ccc4ncnc(N5CCc6cc(F)c(Cl)cc65)c4c3)cnc2N)C1` ?
Output line: 10.1

Input line: Which growth value is on record for `CCCCCCCCn1ccc2cc(NC(=O)CN3CCN(c4cc(C)nc(Cl)n4)CC3)ccc21` ?
Output line: 64.4

Input line: Which growth value is on record for `c1ccc(Nc2nc3c(s2)CCc2c[nH]cc2-3)nc1` ?
Output line: 75.3

====

For each record, write down the corresponding growth.
System: BT-549 breast
Experiment: NCI-60 one-dose screen, 48 h (100 = growth as untreated, 0 = no growth, -100 = all killed)
Conditions: 10 µM unless noted
Compounds without any hit were thinned out: in the full panel of roughly 83,000, 20% have a hit.
Reply with just the number (in %).

Input line: Which growth value is on record for `CCCCCCCCCCOC(=O)c1nn(C(C)=O)c2cc(C)c(C)cc12` ?
Output line: 90.5

Input line: Which growth value is on record for `O=C(NCCCCO)c1cncnc1Nc1ccc2c(ccn2Cc2cccc(F)c2)c1` ?
Output line: 88.6

Input line: Which growth value is on record for `O=C(/C=C/c1ccccc1)c1ccc(-n2cc(CN3CCN(c4cc5c(cc4F)c(=O)c(C(=O)O)cn5C4CC4)CC3)nn2)cc1` ?
Output line: 76.7

Input line: Which growth value is on record for `CS(=O)(=O)c1ccc(-c2nc3ccccc3n2CC(=O)N/N=C/c2ccccc2)cc1` ?
Output line: 95.9

Input line: Which growth value is on record for `CNCCCNc1nc2ccccc2c2c(=O)c3cc(Cl)ccc3sc12` ?
Output line: 92.4

Input line: Which growth value is on record for `C[C@H](c1nc2ccc(C#N)cc2[nH]1)[C@H]1CC[C@H]2[C@@H]3CCC4=CC(=O)CC[C@]4(C)[C@H]3CC[C@]12C` ?
Output line: 58.9

Input line: Which growth value is on record for `CCn1cc(Cc2cc(C(=O)Nc3cc4cc(OC)c(OC)cc4c(C)n3)ccc2Cl)cn1` ?
Output line: 17.3

Input line: Which growth value is on record for `CC(C)n1c2ccc(Br)cc2c2c3c(c4c5ccccc5ccc4c21)C(=O)NC3=O` ?
Output line: 95.9

Input line: Which growth value is on record for `COc1cc(/C=N/NC(=O)c2ccc(-n3cc(-c4ccccc4)nn3)cc2)cc(OC)c1OC` ?
Output line: 53.8

====

System: OVCAR-8 ovarian
Assay: NCI-60 one-dose screen, 48 h (100 = growth as untreated, 0 = no growth, -100 = all killed)
Conditions: 10 µM unless noted
Compounds without any hit were thinned out: in the full panel of roughly 83,000, 20% have a hit.
For each record, write down the corresponding growth.
Reply with just the number (in %).

Input line: Which measured growth belongs to `O=C(OCc1ccc2c(Cl)cc(Cl)c(O)c2n1)N1CCN(C(=O)c2cc3ccccc3[nH]2)CC1` , tested on OVCAR-8 ovarian?
Output line: 23.8

Input line: Which measured growth belongs to `Cc1c2ccccc2nc2cc3c(cc12)[C@H]1CC[C@]2(C)C(=O)CC[C@H]2[C@@H]1CC3` , tested on OVCAR-8 ovarian?
Output line: 92.5

Input line: Which measured growth belongs to `COC12C=C/C(=C(/C(=O)OCCSc3ccnn3C)C(=O)CCCCCCCCC3(OC)C=C/C(=C(/C(=O)OCCSc4ccnn4C)C(=O)CCCCCCCC1)O3)O2` , tested on OVCAR-8 ovarian?
Output line: 17.3

Input line: Which measured growth belongs to `CCOC(=O)CC[C@H](NC(=O)c1ccc(N(C)Cc2cnc3nc(N)nc(N)c3n2)c2ccccc12)C(=O)OCC` , tested on OVCAR-8 ovarian?
Output line: 23.9

Input line: Which measured growth belongs to `CN(C)CCn1c(=O)c2ccccc2n2nc3ccccc3c12` , tested on OVCAR-8 ovarian?
Output line: 79.2

Input line: Which measured growth belongs to `Cc1cccc(NC(=O)Cn2cc(CN3CCN(c4ccnc5cc(Cl)ccc45)CC3)nn2)c1` , tested on OVCAR-8 ovarian?
Output line: 92.7

Input line: Which measured growth belongs to COC12C=C/C(=C(/C(=O)OCc3csc(SC)n3)C(=O)CCCCCCCCC3(OC)C=C/C(=C(/C(=O)OCc4cnc(SC)s4)C(=O)CCCCCCCC1)O3)O2 (stereo not given) , tested on OVCAR-8 ovarian?
Output line: 27

Input line: Which measured growth belongs to `Cc1cc(=O)oc2cc(Oc3nc(Br)cn4c(Br)cnc34)ccc12` , tested on OVCAR-8 ovarian?
Output line: 64.7

Input line: Which measured growth belongs to CCOC(=O)C1=C(CCl)N(C)C(=O)NC1c1ccc2c(c1)OCO2 (stereo not given) , tested on OVCAR-8 ovarian?
Output line: 44.9

Input line: Which measured growth belongs to `c1ccc(-c2c(-c3ccccc3)[n+](Cc3ccc4ccccc4c3)cn2Cc2ccc3ccccc3c2)cc1` , tested on OVCAR-8 ovarian?
Output line: -87.4
